As shown below, each of these compounds has a reported activation value.
# Target under test: D(2) dopamine receptor (Homo sapiens)
# Test protocol: Beta-Arrestin HTS for Positive Allosteric Modulators of the Human D2 Dopamine Receptor: Agonists
# Experimental parameters: DiscoveRx PathHunter D2 beta-arrestin, luminescence, 90 min; stronger effect = higher value; 100% = 57 uM dopamine signal
Among all 360,000 compounds or so, about 300 (0.083%) were called active. For the sample, actives were picked, then their nearest neighbours and some compounds at random.

Compound: CCOc1cc(CN2CCCC(CO)(Cc3ccc(F)cc3F)C2)ccc1OC (stereo not given)
activation [%]: -5.13
--
Compound: CCCOc1cc(C)c(S(=O)(=O)n2nnc3ccccc32)cc1C
activation [%]: 2.16
--
Compound: CN(CC(=O)NC1CCCCC1)S(=O)(=O)c1cccc2cccnc12
activation [%]: -4.91
--
Compound: CC(C)c1cccc(-c2csc(C(O)c3ccccc3)n2)c1 (stereo not given)
activation [%]: 5.04
--
Compound: C/C=C/C(=O)Nc1nnc(C(C)C)s1
activation [%]: -0.338
--
Compound: CCCc1cc(=O)[nH]c(SCC(=O)c2c(N)n(CC(C)C)c(=O)n(C)c2=O)n1
activation [%]: -5.56
--
Compound: CCn1cc(CNC(=O)c2cc([N+](=O)[O-])c(C)c([N+](=O)[O-])c2)cn1
activation [%]: 1.34
--
Compound: Oc1cc2c(cc1O)CN(C(=S)NCCc1ccc(Cl)cc1)CCC2
activation [%]: -1.87
--
Compound: O=C(Nc1ccc(N2CCOCC2)nc1)c1c(F)cccc1F
activation [%]: -1.59
--
Compound: O=C(Nc1ccc(Cl)c(Cl)c1)N1CC=C(c2ccccc2)CC1
activation [%]: -2.15

* * *

# Target under test: D(2) dopamine receptor (Homo sapiens) (UniProt P14416)
# Sequence (P14416 whole entry, looked up): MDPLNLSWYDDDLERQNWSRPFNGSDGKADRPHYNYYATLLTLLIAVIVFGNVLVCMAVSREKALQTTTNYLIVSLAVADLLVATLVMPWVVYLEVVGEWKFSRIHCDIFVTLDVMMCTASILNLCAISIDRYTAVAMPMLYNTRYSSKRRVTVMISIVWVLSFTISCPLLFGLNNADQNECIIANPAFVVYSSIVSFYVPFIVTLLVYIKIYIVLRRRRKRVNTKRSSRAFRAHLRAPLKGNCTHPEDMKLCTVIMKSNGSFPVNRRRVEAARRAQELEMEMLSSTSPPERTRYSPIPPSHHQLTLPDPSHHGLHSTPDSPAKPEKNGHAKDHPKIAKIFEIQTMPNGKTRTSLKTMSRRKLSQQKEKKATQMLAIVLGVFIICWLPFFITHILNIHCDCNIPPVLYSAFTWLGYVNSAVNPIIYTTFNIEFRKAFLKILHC
# Test protocol: Beta-Arrestin HTS for Positive Allosteric Modulators of the Human D2 Dopamine Receptor: Agonists
# Experimental parameters: DiscoveRx PathHunter D2 beta-arrestin, luminescence, 90 min; stronger effect = higher value; 100% = 57 uM dopamine signal
Out of some 360,000 compounds screened, about 300 (0.083%) were called active. Only a selection was taken, and actives are over-represented in it overall.
As shown below, each of these compounds has a reported activation value.
Endpoint: activation (%)

Compound: O=c1onc(-c2c(F)cccc2F)n1-c1ccccc1Cl
Recorded result: 58.1
--
Compound: CCOc1ccc(NC(=O)CN(C)CC(=O)NC(C)c2ccccc2)cc1OCC (configuration not stated)
Recorded result: -5.49
--
Compound: COc1cc(C(=S)N2CCOCC2)cc(OC)c1OC(=O)c1cc([N+](=O)[O-])c(C)c([N+](=O)[O-])c1
Recorded result: 4.7
--
Compound: O=C(Cn1c(-c2ccc(Cl)cc2)noc1=O)N1CCN(c2ccccc2F)CC1
Recorded result: 3.21
--
Compound: O=C(O)C1CCN1C1CCCCC1 (configuration not stated)
Recorded result: -0.715
--
Compound: O=C1c2ccccc2C(=O)N1CCC(O)C[N+](=O)[O-] (configuration not stated)
Recorded result: -2.92
--
Compound: COc1ccc(-c2ccc3nnc(SCC(=O)Nc4ccc(NC(C)=O)cc4)n3n2)cc1
Recorded result: 0.231
--
Compound: Oc1ccccc1CNc1ncc(Br)cc1Br
Recorded result: 0.262
--
Compound: COc1ccccc1CCNC(=O)CN1C(=O)NC2(CCCC2)C1=O
Recorded result: -3.81
--
Compound: O=C(Cn1nc([N+](=O)[O-])nc1Br)NC1CCCCC1
Recorded result: 6.2
--
Compound: CCOc1ccc(CN2CCC(n3nccc3NC(=O)C3CC3)CC2)cc1CO
Recorded result: 4.34
--
Compound: CCN1CCN(C(=O)/C=C\C(=O)O)CC1
Recorded result: -0.987

* * *

# Target under test: D(2) dopamine receptor (Homo sapiens) (UniProt P14416)
# Test protocol: Beta-Arrestin HTS for Positive Allosteric Modulators of the Human D2 Dopamine Receptor: Agonists
# Experimental parameters: DiscoveRx PathHunter D2 beta-arrestin, luminescence, 90 min; stronger effect = higher value; 100% = 57 uM dopamine signal
Screen size: about 360,000 compounds; about 300 (0.083%) were called active. This excerpt belongs to a sample that is enriched for actives.
Endpoint: activation (%)

Compound: CC(=O)Nc1cccc(/C(C)=N/NC(=O)c2c(-c3ccccc3Cl)noc2C)c1
Endpoint: activation
Recorded result: -0.376

Compound: CNc1cncc(-c2cccc(C(=O)N3CCOCC3)c2)n1
Endpoint: activation
Recorded result: -3.27

Compound: Cc1cc(C)cc(C(=O)N(CCc2ccccc2)C2=CC3CCC(C2)N3C)c1 (stereo unspecified)
Endpoint: activation
Recorded result: 0.198

Compound: CC(C)c1cccc(C(C)C)c1Nc1cn[nH]c1
Endpoint: activation
Recorded result: 8.06

Compound: COc1cccc(C(O)c2ncc(-c3ccc4ccccc4c3)[nH]2)c1 (stereo unspecified)
Endpoint: activation
Recorded result: -2.42

Compound: CN1C(=O)/C(=C/C=C2\SCCN2C)OC1=S
Endpoint: activation
Recorded result: -3.31

Compound: O=[N+]([O-])c1ccc(CN2CC(N3CC=CC3)CS2(=O)=O)cc1 (stereo unspecified)
Endpoint: activation
Recorded result: -1.85

Compound: O=C(NCc1ccco1)c1ccc(NS(=O)(=O)c2cccc([N+](=O)[O-])c2)cc1
Endpoint: activation
Recorded result: 2.68

Compound: COc1cc(C(=O)Nc2cc(C(F)(F)F)ccc2N2CCOCC2)ccc1O
Endpoint: activation
Recorded result: -0.449

Compound: O=C(CC1SC(=Nc2ccccc2)N(Cc2ccccn2)C1=O)Nc1cccc(Cl)c1 (stereo unspecified)
Endpoint: activation
Recorded result: 0.599

Compound: COc1cccc(OCc2cc(C(=O)N3CCN(C(=O)c4ccco4)CC3)no2)c1
Endpoint: activation
Recorded result: 2.91

Compound: O=C1CCCN1C(=O)COc1ccc([N+](=O)[O-])cc1
Endpoint: activation
Recorded result: -5.83

Compound: COc1cc([N+](=O)[O-])cc([N+](=O)[O-])c1NC(=O)N1CCOCC1
Endpoint: activation
Recorded result: 5.63

Compound: C/C(=N\NC(=O)c1ccc(CSc2nc(C)cc(C)n2)cc1)C1CCCCC1
Endpoint: activation
Recorded result: 2.32

Compound: CC1=CC=CN2C1=NC(=O)CC2(C)C(=O)N(CC(=O)NC1CCCC1)c1ccccc1C (stereo unspecified)
Endpoint: activation
Recorded result: 4.24

Compound: O=C(c1ccco1)N1CCN(Cc2cccc(C(F)(F)F)c2)CC1
Endpoint: activation
Recorded result: 41.8

Compound: COc1ccc([C@H]2C[C@@H](n3cc(COC(=O)c4ccccc4)nn3)[C@H](O)CN2C(=O)c2cccs2)cc1
Endpoint: activation
Recorded result: -3.3

Compound: COc1ccc(OCc2nnc3n2N=C(c2ccccc2)C(CC(=O)O)S3)cc1 (stereo unspecified)
Endpoint: activation
Recorded result: -4.75

Compound: C/C(=N/Nc1nc(-c2ccccc2)c(CC(=O)O)s1)c1ccccc1
Endpoint: activation
Recorded result: -4.03

Compound: COc1cc(C(=S)N2CCOCC2)cc(OC)c1OC(=O)c1ccc([N+](=O)[O-])cc1[N+](=O)[O-]
Endpoint: activation
Recorded result: 48

Compound: CCCCN1C(=O)C(CC(=O)NC(c2ccccc2)c2ccccc2)CC(C(=O)N2CCOCC2)=C1C (stereo unspecified)
Endpoint: activation
Recorded result: -7.35

* * *

# Target under test: D(2) dopamine receptor (Homo sapiens)
# Test protocol: Beta-Arrestin HTS for Positive Allosteric Modulators of the Human D2 Dopamine Receptor: Agonists
# Experimental parameters: DiscoveRx PathHunter D2 beta-arrestin, luminescence, 90 min; stronger effect = higher value; 100% = 57 uM dopamine signal
In all, about 360,000 compounds went through this assay and about 300 (0.083%) were called active. The sample holds actives, similar compounds and a random draw of the others, so the mix is not that of the screen.

Structure smiles: CCCCc1nccn1CCn1ccnc1CCCC
Unit abbreviation: %
activation: -1.34

Structure smiles: Cc1ccccc1Nc1scc(-c2ccc(Br)cc2)[n+]1-c1ccccc1C
Unit abbreviation: %
activation: -4.78

Structure smiles: CCN1C(=O)C(=O)N(CC(=O)Nc2cc(C)ccc2C)C1=O
Unit abbreviation: %
activation: -2.03

Structure smiles: CCCCNC(=O)c1nc(C2CCN(S(=O)(=O)c3ccc(F)c(F)c3)CC2)oc1-c1cccc(C(F)(F)F)c1
Unit abbreviation: %
activation: -1.93

Structure smiles: OCCN1CCN(c2ncnc3c2ncn3[C@H]2CN(Cc3ccco3)C[C@@H](CO)O2)CC1
Unit abbreviation: %
activation: 2.19
